assay: Solubility in aqueous solutions; type: physicochemical
Readout Kind: solubility

Exam item: Look up and report measured solubility for this entry: `C=CCNC1=C2C[C@@H](C)C[C@H](OC)[C@H](O)[C@@H](C)/C=C(\C)[C@H](OC(N)=O)[C@@H](OC)/C=C\C=C(/C)C(=O)NC(=CC1=O)C2=O`
Marked response: < 100 µg/mL
